Quick reference for IC50 among some molecules
biological target: BRD4(49-170) bromodomain (Homo sapiens (Human)); test: BRD4 AlphaScreen Assay; settings: binding to biotin-H4(1-21) Ac-K5/8/12/16 peptide

Data request: Could you please provide reported IC50 for COc1ccc(-c2nc(C3CC3)n3c2CN(C(C)=O)CC3)cc1OC [Example 42] ? Thanks!
Data returned: > 25 µM

Data request: Give recorded IC50. CC(=O)N1CCn2c(C3CC3)nc(N3CCCc4cc(-c5cccc(S(N)(=O)=O)c5)ccc43)c2C1 [Example 120]
Data returned: > 25 µM

Data request: Supply reported IC50 belonging to this molecule: CC(=O)N1CCn2c(C3CN(C)C3)nc(-c3ccc4c(c3)c(-c3cnn(C)c3)nn4C)c2C1 [Example 13]
Data returned: > 10 µM

Data request: Give the value of IC50 reported for the following: CNC(=O)N1CCn2c(C3CCN(C)CC3)nc(-c3ccc4c(c3)c(-c3cnn(C)c3)nn4C)c2C1 [Example 56]
Data returned: > 10 µM
